# target desc: NA from Virus H5N1 (soluble viral NA, N1) (Influenza A virus)
# Sequence (Q6DPL2 35-449 limits assumed): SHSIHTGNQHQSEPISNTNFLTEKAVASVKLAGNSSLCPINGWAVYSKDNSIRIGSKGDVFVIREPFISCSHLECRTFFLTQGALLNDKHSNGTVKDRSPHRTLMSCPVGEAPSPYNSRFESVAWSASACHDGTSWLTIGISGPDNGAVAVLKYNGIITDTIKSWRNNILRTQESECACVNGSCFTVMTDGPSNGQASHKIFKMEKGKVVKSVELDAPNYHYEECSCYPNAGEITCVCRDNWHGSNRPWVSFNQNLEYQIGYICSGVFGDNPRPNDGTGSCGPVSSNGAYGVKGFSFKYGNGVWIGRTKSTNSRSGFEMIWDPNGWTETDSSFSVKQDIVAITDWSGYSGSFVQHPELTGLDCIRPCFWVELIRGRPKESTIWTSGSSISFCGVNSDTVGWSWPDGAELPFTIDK
recorded endpoint: IC50

>  <compound>
CC(=O)N[C@H]1[C@H]([C@H](O)[C@H](O)CO)OC(SCCCCCCS)(C(=O)O)C[C@@H]1N (stereo partly shown)

>  <recorded endpoint>
IC50

>  <data value>
60000 to 180000 nM

$$$$
>  <compound>
CC(=O)N[C@H]1[C@H]([C@H](O)[C@H](O)CO)OC(SCCCCCCS)(C(=O)O)C[C@@H]1NC(=N)N (stereo partly shown)

>  <recorded endpoint>
IC50

>  <data value>
100 nM

$$$$
>  <compound>
CC(=O)N[C@H]1[C@H]([C@H](O)[C@H](O)CO)OC(SCCOCCOCCOCCOCCOCCSC2(C(=O)O)C[C@H](N)[C@@H](NC(C)=O)[C@H]([C@H](O)[C@H](O)CO)O2)(C(=O)O)C[C@@H]1N (stereo partly shown)

>  <recorded endpoint>
IC50

>  <data value>
570 nM

$$$$
>  <compound>
CC(=O)N[C@H]1[C@H]([C@H](O)[C@H](O)CO)OC(SCCOCCOCCOCCOCCSC2(C(=O)O)C[C@H](N)[C@@H](NC(C)=O)[C@H]([C@H](O)[C@H](O)CO)O2)(C(=O)O)C[C@@H]1N (stereo partly shown)

>  <recorded endpoint>
IC50

>  <data value>
1100 nM

$$$$

* * *

Record: pIC50 reported on NA from Virus H3N2 (soluble viral NA, N2) (Influenza A virus, UniProt Q91MA2).
Sequence (Q91MA2 31-469 limits assumed): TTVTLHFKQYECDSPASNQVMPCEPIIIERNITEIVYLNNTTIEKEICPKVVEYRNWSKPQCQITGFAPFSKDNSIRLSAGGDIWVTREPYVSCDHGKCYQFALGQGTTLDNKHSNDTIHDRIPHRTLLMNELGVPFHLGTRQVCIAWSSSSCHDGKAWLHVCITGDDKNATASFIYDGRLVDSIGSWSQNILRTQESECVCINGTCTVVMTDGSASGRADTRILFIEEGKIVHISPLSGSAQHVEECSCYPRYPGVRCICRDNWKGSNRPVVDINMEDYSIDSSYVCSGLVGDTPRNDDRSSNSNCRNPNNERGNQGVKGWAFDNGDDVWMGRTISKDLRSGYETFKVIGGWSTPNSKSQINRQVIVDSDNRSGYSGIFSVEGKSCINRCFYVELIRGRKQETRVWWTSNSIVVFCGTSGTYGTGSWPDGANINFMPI
pIC50: −log10 of the molar value.

>  <compound>
CC(=O)N[C@H]1[C@H]([C@H](O)[C@H](O)CO)OC(SCCOCCOCCOCCOCCSC2(C(=O)O)C[C@H](N)[C@@H](NC(C)=O)[C@H]([C@H](O)[C@H](O)CO)O2)(C(=O)O)C[C@@H]1N (stereo partly drawn)

>  <target desc>
NA from Virus H3N2 (soluble viral NA, N2) (Influenza A virus, UniProt Q91MA2)

>  <pIC50>
5.00

$$$$
>  <compound>
CC(=O)N[C@H]1[C@H]([C@H](O)[C@H](O)CO)OC(SCCOCCOCCOCCOCCOCCSC2(C(=O)O)C[C@H](N)[C@@H](NC(C)=O)[C@H]([C@H](O)[C@H](O)CO)O2)(C(=O)O)C[C@@H]1N (stereo partly drawn)

>  <target desc>
NA from Virus H3N2 (soluble viral NA, N2) (Influenza A virus, UniProt Q91MA2)

>  <pIC50>
4.96

$$$$
